test summary: PK study of SM components in plasma of AIA rats by UPLC-MS/MS (MG vs MPS group)
measurement context: MG group: AIA rats, saline 21 days, then oral SM 39.2 g crude drug/kg; plasma; mean ± SEM
Record form. Attribute: t 1/2. Fill in for each entry.
Give bare numbers, in h.

Solved cases (4 shown):
compound	result unit	t 1/2
COc1ccc(-c2coc3cc(O[C@@H]4O[C@H](CO)[C@@H](O)[C@H](O)[C@H]4O)ccc3c2=O)cc1O [Calycosin-7-glycoside]	h	2.342
COC[C@]12CN(C)C3[C@@H]4[C@H](OC)[C@H]1[C@@]3([C@@H](OC)C[C@H]2O)[C@@H]1C[C@@]2(O)[C@H](OC(=O)c3ccccc3)[C@@H]1[C@]4(O)[C@@H](O)[C@@H]2OC	h	3.530
C[C@]12C[C@@H](O)[C@@H]3C[C@@]1(O[C@@H]1O[C@H](CO)[C@@H](O)[C@H](O)[C@H]1O)[C@@]3(COC(=O)c1ccccc1)C(=O)O2	h	2.488
CC1(C)[C@@H](O[C@H]2O[C@H](C(=O)O)[C@@H](O)[C@H](O)[C@H]2O[C@@H]2O[C@H](C(=O)O)[C@@H](O)[C@H](O)[C@H]2O)CC[C@]2(C)[C@H]3C(=O)C=C4[C@@H]5C[C@@](C)(C(=O)O)CC[C@]5(C)CC[C@@]4(C)[C@]3(C)CC[C@@H]12	h	7.605

Now look at this entry.
Problem: Using the record for CCN1C[C@]2(COC)CC[C@H](OC)[C@]34C1[C@H](C[C@H]23)[C@@]1(O)C[C@H](OC)[C@H]2C[C@@H]4[C@@H]1[C@H]2O , report its t 1/2.
Solution: 6.242

---

test summary: PK study of SM components in plasma of AIA rats by UPLC-MS/MS (MG vs MPS group)
measurement context: Sprague-Dawley, rat, plasma, po, 39.2 g/kg/day, C max, MPS group: AIA rats, oral PS 9.8 g crude drug/kg/day 21 days, then oral SM 39.2 g crude drug/kg; plasma; mean ± SEM
Record form. Attribute: Cmax. Fill in for each entry.
A bare number is not enough; add the unit after it.

Solved cases (3 shown):
compound	Cmax
O=C(/C=C/c1ccc(O)cc1)c1ccc(O)cc1O [Isoliquiritigenin]	5.42 ng/mL
COc1ccc(-c2coc3cc(O)ccc3c2=O)cc1 [Formononetin]	4.5 ng/mL
CC1(C)[C@@H](O[C@H]2O[C@H](C(=O)O)[C@@H](O)[C@H](O)[C@H]2O[C@@H]2O[C@H](C(=O)O)[C@@H](O)[C@H](O)[C@H]2O)CC[C@]2(C)[C@H]3C(=O)C=C4[C@@H]5C[C@@](C)(C(=O)O)CC[C@]5(C)CC[C@@]4(C)[C@]3(C)CC[C@@H]12 [Glycyrrhizic acid]	5200 ng/mL

Now look at this entry.
Problem: Using the record for CC1(C)[C@@H](O)CC[C@]2(C)[C@H]3C(=O)C=C4[C@@H]5C[C@@](C)(C(=O)O)CC[C@]5(C)CC[C@@]4(C)[C@]3(C)CC[C@@H]12 [Glycyrrhetinic acid] , report its Cmax.
Solution: 11600 ng/mL

---

test summary: PK study of SM components in plasma of AIA rats by UPLC-MS/MS (MG vs MPS group)
measurement context: Sprague-Dawley, rat, plasma, po, 39.2 g/kg/day, t 1/2, MG group: AIA rats, saline 21 days, then oral SM 39.2 g crude drug/kg; plasma; mean ± SEM
Record form. Attribute: half-life. Fill in for each entry.
One number for each entry, in h.

Solved cases (2 shown):
> print(dat)
                                   compound  result.unit  measured.number
1  CC1(C)[C@@H](O)CC[C@]2(C)[C@H]3C(=O)C=C4[C@@H]5C[C@@](C)(C(=O)O)CC[C@]5(C)CC[C@@]4(C)[C@]3(C)CC[C@@H]12            h             10.7
2         O=C(/C=C/c1ccc(O)cc1)c1ccc(O)cc1O            h             3.12

Problem: Using the record for COc1ccc(-c2coc3cc(O)ccc3c2=O)cc1 , report its half-life.
Solution: 4.27

---

test summary: in vivo
measurement context: Sprague-Dawley, rat, po, 39.2 g/kg/day, C max
readout name: Cmax (ng/mL)
One number for each entry, in ng/mL.

Problem: Using the record for C=C1[C@H]2C[C@@]3([C@@H]1O)[C@@H](CC2=O)[C@]12[C@@H]4C[C@H]3[C@H]1N(CC)C[C@]4(C)CC[C@@H]2O [Songorine] , report its Cmax.
Solution: 14

---

test summary: PK study of SM components in plasma of AIA rats by UPLC-MS/MS (MG vs MPS group)
measurement context: MPS group: AIA rats, oral PS 9.8 g crude drug/kg/day 21 days, then oral SM 39.2 g crude drug/kg; plasma; mean ± SEM
Labelling: C max reported below 20 ng/mL becomes criterion met; at or above becomes criterion not met.

Take a look at these entries with their results.
compound	category
CCN1C[C@]2(COC)CC[C@H](OC)[C@]34C1[C@H](C[C@H]23)[C@@]1(O)C[C@H](OC)[C@H]2C[C@@H]4[C@@H]1[C@H]2O [Talatizamine]	criterion met
COc1ccc(-c2coc3cc(O[C@@H]4O[C@H](CO)[C@@H](O)[C@H](O)[C@H]4O)ccc3c2=O)cc1O [Calycosin-7-glycoside]	criterion met
CCN1C[C@]2(COC)[C@H](O)C[C@H](OC)[C@@]34[C@@H]5C[C@@]6(O)[C@H](OC(=O)c7ccccc7)[C@@H]5[C@@](O)([C@@H]([C@H](OC)[C@H]23)[C@@H]14)[C@@H](O)[C@@H]6OC [Benzoylaconine]	criterion met

Problem: Strictly below 20 ng/mL in C max? CCN1C[C@]2(COC)CC[C@H](O)[C@]34C1[C@H]([C@H](OC)[C@H]23)[C@@]1(O)C[C@H](OC)[C@H]2C[C@@H]4[C@@H]1[C@H]2O [Neoline]
Solution: criterion met

Problem: Strictly below 20 ng/mL in C max? COC[C@]12CN(C)C3[C@@H]4[C@H](OC)[C@H]1[C@@]3([C@@H](OC)C[C@H]2O)[C@@H]1C[C@@]2(O)[C@H](OC(=O)c3ccccc3)[C@@H]1[C@]4(O)[C@@H](O)[C@@H]2OC [Benzoylmesaconitine]
Solution: criterion met

Problem: Strictly below 20 ng/mL in C max? C[C@]12C[C@@H](O)[C@@H]3C[C@@]1(O[C@@H]1O[C@H](CO)[C@@H](O)[C@H](O)[C@H]1O)[C@@]3(COC(=O)c1ccccc1)C(=O)O2 [Albiflorin]
Solution: criterion not met

---

test summary: PK study of SM components in plasma of AIA rats by UPLC-MS/MS (MG vs MPS group)
measurement context: Sprague-Dawley, rat, plasma, po, 39.2 g/kg/day, T max, MG group: AIA rats, saline 21 days, then oral SM 39.2 g crude drug/kg; plasma; mean ± SEM
Record form. Attribute: Tmax. Fill in for each entry.
Answers are plain numbers, in min.

Solved cases (3 shown):
compound	readout name	measured number
CC1(C)[C@@H](O[C@H]2O[C@H](C(=O)O)[C@@H](O)[C@H](O)[C@H]2O[C@@H]2O[C@H](C(=O)O)[C@@H](O)[C@H](O)[C@H]2O)CC[C@]2(C)[C@H]3C(=O)C=C4[C@@H]5C[C@@](C)(C(=O)O)CC[C@]5(C)CC[C@@]4(C)[C@]3(C)CC[C@@H]12	Tmax	30
CC1(C)[C@@H](O)CC[C@]2(C)[C@H]3C(=O)C=C4[C@@H]5C[C@@](C)(C(=O)O)CC[C@]5(C)CC[C@@]4(C)[C@]3(C)CC[C@@H]12	Tmax	120
O=C(/C=C/c1ccc(O)cc1)c1ccc(O)cc1O	Tmax	4.98

Problem: Using the record for COc1ccc(-c2coc3cc(O)ccc3c2=O)cc1 , report its Tmax.
Solution: 4.98

---

Record form. Attribute: AUC 0-t. Fill in for each entry.
test summary: PK study of SM components in plasma of AIA rats by UPLC-MS/MS (MG vs MPS group)
measurement context: MPS group: AIA rats, oral PS 9.8 g crude drug/kg/day 21 days, then oral SM 39.2 g crude drug/kg; plasma; mean ± SEM
Numbers only, in ng·h/mL.

Solved cases (4 shown):
compound	readout name	measured number
COC[C@]12CN(C)C3[C@@H]4[C@H](OC)[C@H]1[C@@]3([C@@H](OC)C[C@H]2O)[C@@H]1C[C@@]2(O)[C@H](OC(=O)c3ccccc3)[C@@H]1[C@]4(O)[C@@H](O)[C@@H]2OC	AUC 0-t	25.368
CCN1C[C@]2(COC)CC[C@H](O)[C@]34C1[C@H]([C@H](OC)[C@H]23)[C@@]1(O)C[C@H](OC)[C@H]2C[C@@H]4[C@@H]1[C@H]2O	AUC 0-t	7.559
O=C1C[C@@H](c2ccc(O[C@@H]3O[C@H](CO)[C@@H](O)[C@H](O)[C@H]3O)cc2)Oc2cc(O)ccc21	AUC 0-t	321.663
COC[C@@]12CC[C@H](OC)[C@]34C([C@H]([C@H](OC)[C@H]13)[C@]1(O)[C@H]3[C@@H](OC(=O)c5ccccc5)[C@](O)(C[C@H]34)[C@@H](OC)[C@@H]1O)N(C)C2	AUC 0-t	1.394

Answer for every listed entry: what is its AUC 0-t? The entries follow.
1. CN[C@@H](C)[C@H](O)c1ccccc1
2. COc1ccc(-c2coc3cc(O[C@@H]4O[C@H](CO)[C@@H](O)[C@H](O)[C@H]4O)ccc3c2=O)cc1O [Calycosin-7-glycoside]

Solution:
1559.029
15.987
